- System: human acute T lymphoblastic leukemia CCRF-CEM cell lines
- test_name: Cell growth inhibition 1 (CellTiter-Glo)
- Assay type: cell-based
- experimental_setup: culture with test compound 72 hours
pIC50: −log10 of the molar value.
Mark false for pIC50 values under 8, and true for everything at or above.

Query :: Kindly determine if pIC50 recorded for CCS(=O)(=O)c1cc(N2CC[C@@H](O)C2)cc(F)c1C#Cc1cn([C@@H]2O[C@H](CNS(N)(=O)=O)[C@@H](O)[C@H]2O)c2ncnc(N)c12 [Reference Example 72] is above or exactly 8.
Result :: false

Query :: Kindly determine if pIC50 recorded for Nc1ncnc2c1c(C#Cc1c(F)cc(N3CCC3)cc1F)cn2[C@@H]1O[C@H](CNS(N)(=O)=O)[C@@H](O)[C@H]1O [Reference Example 43] is above or exactly 8.
Result :: true

Query :: Kindly determine if pIC50 recorded for Nc1ncnc2c1c(C#Cc1c(F)cc(N3CCCC3=O)cc1F)cn2[C@@H]1O[C@H](CNS(N)(=O)=O)[C@@H](O)[C@H]1O [Reference Example 33] is above or exactly 8.
Result :: false

Query :: Kindly determine if pIC50 recorded for COc1cncc(F)c1C#Cc1cn([C@@H]2O[C@H](CNS(N)(=O)=O)[C@@H](O)[C@H]2O)c2ncnc(N)c12 [Reference Example 71] is above or exactly 8.
Result :: false

Query :: Kindly determine if pIC50 recorded for Nc1ncnc2c1c(C#Cc1c(F)cccc1OCC1CC1)cn2[C@@H]1O[C@H](CNS(N)(=O)=O)[C@@H](O)[C@H]1O [Reference Example 86] is above or exactly 8.
Result :: true

More entries:
Query :: Kindly determine if pIC50 recorded for CCSc1cccc(F)c1C#Cc1cn([C@@H]2O[C@H](CNS(N)(=O)=O)[C@@H](O)[C@H]2O)c2ncnc(N)c12 [Reference Example 66] is above or exactly 8.
Result :: true

Query :: Kindly determine if pIC50 recorded for Nc1ncnc2c1c(C#Cc1c(F)cc(N3CC[C@@H](F)C3)cc1F)cn2[C@@H]1O[C@H](CNS(N)(=O)=O)[C@@H](O)[C@H]1O [Reference Example 29] is above or exactly 8.
Result :: true

Query :: Kindly determine if pIC50 recorded for CSc1cccc(F)c1C#Cc1cn([C@@H]2C=C(CNS(N)(=O)=O)[C@@H](O)[C@H]2O)c2ncnc(N)c12 [Reference Example 130] is above or exactly 8.
Result :: true

Query :: Kindly determine if pIC50 recorded for Nc1ncnc2c1c(C#Cc1c(F)cc(N3CCS(=O)(=O)CC3)cc1F)cn2[C@@H]1O[C@H](CNS(N)(=O)=O)[C@@H](O)[C@H]1O [Reference Example 74] is above or exactly 8.
Result :: false
